SUBJECT OF TEST: hKv3.1 (Homo sapiens)
Construct: expressed in transfected cells
PROTOCOL DETAILS: Automated patch clamp electrophysiology (Patchliner), CHO/Kv3.1 cells
Type: cell-based
STUDY CONDITIONS: 10 μM compound; peak current at voltage step of −10 mV vs vehicle (0.33% DMSO); hKv3.1 in CHO-K1, whole-cell
OBSERVATION TYPE: Kv3.1 Activity at 10 μM Potentiation (%)

COc1ccc(C)c(Oc2cc(N3C(=O)NC(C)(C)C3=O)ncn2)c1 [Example 18]	53
CC[C@@]1(C)NC(=O)N(c2ccnc(Oc3ccc(C)c(OC)c3)n2)C1=O [Example 62]	20
COc1cc(Oc2nccc(N3C(=O)NC(C)(C)C3=O)n2)ccc1C(F)(F)F [Example 65]	32
COc1cc(Oc2cc(N3C(=O)NC(C)(C)C3=O)ncn2)ccc1F [Example 13]	40
Cc1ccc(Oc2cc(N3C(=O)NC(C)(C)C3=O)ncn2)cc1OCC1CC1 [Example 37]	16
COc1cc(Oc2nccc(N3C(=O)NC(C)(C)C3=O)n2)ccc1C [Example 63]	50

P = COc1cc(Oc2cc(N3C(=O)NC4(CCCC4)C3=O)ncn2)ccc1F [Example 14]
Q = Cc1ccccc1Oc1cc(N2C(=O)NC(C)(C)C2=O)ncn1 [Example 26]
R = Cc1ccc(Oc2cc(N3C(=O)NC(C)(C)C3=O)ncn2)cc1F [Example 16]
Please list these compounds in decreasing order of Kv3.1 Activity at 10 μM Potentiation (%). Please list each label once, in the requested order. R, P, Q

----------
SUBJECT OF TEST: hKv3.1 (Homo sapiens)
Construct: expressed in transfected cells
Sequence (P48547 1-511): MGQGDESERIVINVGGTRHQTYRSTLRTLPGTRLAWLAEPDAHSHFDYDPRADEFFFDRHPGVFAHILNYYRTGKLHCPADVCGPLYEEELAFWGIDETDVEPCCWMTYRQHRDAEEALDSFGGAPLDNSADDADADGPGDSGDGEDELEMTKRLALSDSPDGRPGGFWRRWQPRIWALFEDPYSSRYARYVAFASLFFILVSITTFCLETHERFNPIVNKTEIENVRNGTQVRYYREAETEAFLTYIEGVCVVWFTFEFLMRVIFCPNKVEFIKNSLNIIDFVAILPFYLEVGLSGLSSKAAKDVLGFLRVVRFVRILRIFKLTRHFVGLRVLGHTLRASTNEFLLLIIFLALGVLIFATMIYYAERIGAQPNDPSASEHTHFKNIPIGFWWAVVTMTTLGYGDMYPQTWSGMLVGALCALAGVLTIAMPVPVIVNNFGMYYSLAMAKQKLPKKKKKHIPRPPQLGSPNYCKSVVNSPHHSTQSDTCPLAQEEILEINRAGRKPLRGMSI
PROTOCOL DETAILS: Automated patch clamp electrophysiology (Patchliner), CHO/Kv3.1 cells
Type: cell-based
STUDY CONDITIONS: 10 μM compound; voltage shift of the IV curve at V1/2; hKv3.1 in CHO-K1, whole-cell
OBSERVATION TYPE: Kv3.1 Activity at 10 μM Voltage Shift (mV)

Cc1ccc(Oc2cc(N3C(=O)NC(C)(C)C3=O)ncn2)cn1	−4.0

a = COc1cc(Oc2nccc(N3C(=O)NC(C)(C)C3=O)n2)ccc1C
b = CCC1(CC)NC(=O)N(c2cc(Oc3ccc(C)c(OC)c3)ncn2)C1=O
c = CC[C@]1(C)NC(=O)N(c2cc(Oc3ccc(C)c(OC)c3)ncn2)C1=O
Sequence the entries by Kv3.1 Activity at 10 μM Voltage Shift (mV), beginning with the highest number. Write out the labels following the order that was asked for. b, c, a
(b: −0.9 mV, c: −2.1 mV, a: −4.2 mV)
